# Test system: K. pneumoniae NVT1001 strains with ESBL or AmpC β-lactamase plasmids
# TEST_SUMMARY: Etest MIC of β-lactams, OmpK35/36 loss, ΔramR and/or extended-spectrum β-lactamase and AmpC β-lactamase (Table 8)
# Type: cell-based, Klebsiella pneumoniae
# MEASUREMENT_SETUP: Klebsiella pneumoniae, CMY-2 on pACYC177; Δ35 (ΔompK35 mutant)
The entries below come with measured MIC values attached.
State the answer as a number, implicitly in µg/mL.

These solved cases illustrate the format of a correct answer.
| MOLECULE_SMILES | MEASURED_QUANTITY | UNIT_OF_MEASUREMENT | NUMERIC_VALUE |
| --- | --- | --- | --- |
| CO/N=C(\C(=O)N[C@@H]1C(=O)N2C(C(=O)O)=C(COC(C)=O)CS[C@H]12)c1csc(N)n1 | MIC | µg/mL | 128 |
| CO/N=C(\C(=O)N[C@@H]1C(=O)N2C(C(=O)O)=C(COC(N)=O)CS[C@H]12)c1ccco1 | MIC | µg/mL | 256 |
| C[C@@H](O)[C@H]1C(=O)N2C(C(=O)O)=C(S[C@@H]3CN[C@H](C(=O)N(C)C)C3)[C@H](C)[C@H]12 | MIC | µg/mL | 0.25 |
| C[C@H]1[C@H](NC(=O)/C(=N\OC(C)(C)C(=O)O)c2csc(N)n2)C(=O)N1S(=O)(=O)O | MIC | µg/mL | 128 |

Q: Any idea what MIC came out for "CCO/N=C(\C(=O)N[C@@H]1C(=O)N2C(C(=O)[O-])=C(Sc3nc(-c4cc[n+](C)cc4)cs3)CS[C@H]12)c1nsc(N)n1" on K. pneumoniae NVT1001 strains with ESBL or AmpC β-lactamase plasmids?
Ans: 64

Q: Moving on to the next molecule: "C[C@@H](O)[C@H]1C(=O)N2C(C(=O)O)=C(SCCN=CN)C[C@H]12"
Ans: 1

---

# Test system: K. pneumoniae NVT1001 and its GyrA/ParC and ΔramR mutants
# TEST_SUMMARY: Etest MIC of quinolones, GyrA/ParC mutations and AcrAB-TolC overexpression (ΔramR) (Table 10)
# Type: cell-based
# MEASUREMENT_SETUP: Klebsiella pneumoniae, S83F mutant (GyrA S83F)
MEASURED_QUANTITY: MIC (µg/mL)
Please state the figure in µg/mL; there is no need to write the unit.

Q: Look up MIC: "COc1c(N2C[C@@H]3CCCN[C@@H]3C2)c(F)cc2c(=O)c(C(=O)O)cn(C3CC3)c12"
Ans: 0.5

Q: Same for "C[C@H]1COc2c(N3CCN(C)CC3)c(F)cc3c(=O)c(C(=O)O)cn1c23"
Ans: 0.5

Q: And then "CCn1cc(C(=O)O)c(=O)c2cc(F)c(N3CCNCC3)cc21" , what is it?
Ans: 2

Q: Also CC1COc2c(N3CCN(C)CC3)c(F)cc3c(=O)c(C(=O)O)cn1c23 (centres unmarked) , if possible.
Ans: 2

---

# Tested on: K. pneumoniae NVT1001 strains with ESBL or AmpC β-lactamase plasmids
# TEST_SUMMARY: Etest MIC of β-lactams, OmpK35/36 loss, ΔramR and/or extended-spectrum β-lactamase and AmpC β-lactamase (Table 8)
# Type: cell-based, Klebsiella pneumoniae
# MEASUREMENT_SETUP: Klebsiella pneumoniae, CTX-M-14 on pACYC177; ΔramR mutant
Quick reference for MIC among some molecules
The reply should be a number in µg/mL, with the unit left off.

Worked set:
| MOLECULE | MIC (µg/mL) |
| --- | --- |
| CO/N=C(\C(=O)N[C@@H]1C(=O)N2C(C(=O)O)=C(COC(C)=O)CS[C@H]12)c1csc(N)n1 [Cefotaxime] | 128 |
| C[C@@H](O)[C@H]1C(=O)N2C(C(=O)O)=C(S[C@@H]3CN[C@H](C(=O)Nc4cccc(C(=O)O)c4)C3)[C@H](C)[C@H]12 [Ertapenem] | 0.25 |

Then this molecule:
Q: For K. pneumoniae NVT1001 strains with ESBL or AmpC β-lactamase plasmids, provide MIC of C[C@@H](O)[C@H]1C(=O)N2C(C(=O)O)=C(S[C@@H]3CN[C@H](C(=O)N(C)C)C3)[C@H](C)[C@H]12 [Meropenem] please.
Ans: 0.125

---

Measured MIC accompanies every entry in the list below.
# Tested on: A. baumannii KW1 strains with β-lactamase plasmids
# TEST_SUMMARY: Etest MIC of β-lactams, extended-spectrum β-lactamase, AmpC β-lactamase or carbapenemase (Table 18)
# Format: cell-based, Acinetobacter baumannii
# MEASUREMENT_SETUP: KW1 with ADC-30 on pYMAb5
Number in µg/mL, nothing else.

| MOLECULE_SMILES | NUMERIC_VALUE |
| --- | --- |
| C[C@H]1[C@H](NC(=O)/C(=N\OC(C)(C)C(=O)O)c2csc(N)n2)C(=O)N1S(=O)(=O)O | 64 |
| C[C@@H](O)[C@H]1C(=O)N2C(C(=O)O)=C(S[C@@H]3CN[C@H](C(=O)N(C)C)C3)[C@H](C)[C@H]12 | 3 |

Let's switch to this compound now.
Q: Which measured MIC value corresponds to "C[C@@H](O)[C@H]1C(=O)N2C(C(=O)O)=C(S[C@@H]3CN[C@H](CNS(N)(=O)=O)C3)[C@H](C)[C@H]12" ?
Ans: 4

---

# System: K. pneumoniae NVT1001 strains with ESBL or AmpC β-lactamase plasmids
# TEST_SUMMARY: Etest MIC of β-lactams, OmpK35/36 loss, ΔramR and/or extended-spectrum β-lactamase and AmpC β-lactamase (Table 8)
# Assay type: cell-based, Klebsiella pneumoniae
# MEASUREMENT_SETUP: Klebsiella pneumoniae, SHV-12 on pACYC177; Δ35/36 (ΔompK35/36 mutant)
Reported MIC is given for each of the following compounds.
Reply with just the number (in µg/mL).

| COMPOUND | MEASURED_QUANTITY | UNIT_OF_MEASUREMENT | NUMERIC_VALUE |
| --- | --- | --- | --- |
| C[C@@H](O)[C@H]1C(=O)N2C(C(=O)O)=C(S[C@@H]3CN[C@H](C(=O)Nc4cccc(C(=O)O)c4)C3)[C@H](C)[C@H]12 [Ertapenem] | MIC | µg/mL | 4 |

Q: Returns the measured MIC for the input compound. Input: CCO/N=C(\C(=O)N[C@@H]1C(=O)N2C(C(=O)[O-])=C(Sc3nc(-c4cc[n+](C)cc4)cs3)CS[C@H]12)c1nsc(N)n1 [Ceftaroline]
Ans: 64

Q: Further, for CO[C@@]1(NC(=O)Cc2cccs2)C(=O)N2C(C(=O)O)=C(COC(N)=O)CS[C@@H]21 [Cefoxitin] ?
Ans: 128

Q: Repeat with C[C@@H](O)[C@H]1C(=O)N2C(C(=O)O)=C(S[C@@H]3CN[C@H](C(=O)N(C)C)C3)[C@H](C)[C@H]12 [Meropenem]
Ans: 1

---

# Test system: K. pneumoniae NVT1001 strains with ESBL or AmpC β-lactamase plasmids
# TEST_SUMMARY: Etest MIC of β-lactams, OmpK35/36 loss, ΔramR and/or extended-spectrum β-lactamase and AmpC β-lactamase (Table 8)
# Type: cell-based, Klebsiella pneumoniae
# MEASUREMENT_SETUP: Klebsiella pneumoniae, DHA-1-AmpR on pACYC177; ΔramRΔ36 (ΔramRΔompK36 mutant)
Listing of entries alongside the reported MIC.
The response must be a number in µg/mL with no trailing unit.

| MOLECULE_SMILES | MEASURED_QUANTITY | NUMERIC_VALUE |
| --- | --- | --- |
| C[C@H]1[C@H](NC(=O)/C(=N\OC(C)(C)C(=O)O)c2csc(N)n2)C(=O)N1S(=O)(=O)O | MIC | 8 |
| CC(C)(O/N=C(\C(=O)N[C@@H]1C(=O)N2C(C(=O)[O-])=C(C[n+]3ccccc3)CS[C@H]12)c1csc(N)n1)C(=O)O | MIC | 64 |
| CO/N=C(\C(=O)N[C@@H]1C(=O)N2C(C(=O)O)=C(COC(C)=O)CS[C@H]12)c1csc(N)n1 | MIC | 64 |

Turning to the following compound.
Q: Hello, I am looking for reported MIC with K. pneumoniae NVT1001 strains with ESBL or AmpC β-lactamase plasmids for "CCO/N=C(\C(=O)N[C@@H]1C(=O)N2C(C(=O)[O-])=C(Sc3nc(-c4cc[n+](C)cc4)cs3)CS[C@H]12)c1nsc(N)n1" . Could you help?
Ans: 16

---

# Tested on: K. pneumoniae NVT1001 ΔramRΔompK35/36 mutant and its revertants
# TEST_SUMMARY: Etest MIC, ΔramRΔompK35/36 mutant and its revertants (Table 7)
# Format: cell-based
# MEASUREMENT_SETUP: Klebsiella pneumoniae, ΔramRΔompK35/36::ompK35/36 revertant
Reported values of MIC for individual entries
Answer with a number only, understood to be in µg/mL.

Below, 8 molecules whose answers are already recorded.
| MOLECULE | MIC [µg/mL] |
| --- | --- |
| O=C1CN(/N=C/c2ccc([N+](=O)[O-])o2)C(=O)N1 [Nitrofurantoin] | 256 |
| C[C@@H](O)[C@H]1C(=O)N2C(C(=O)O)=C(S[C@@H]3CN[C@H](C(=O)N(C)C)C3)[C@H](C)[C@H]12 [Meropenem] | 0.06 |
| CO/N=C(\C(=O)N[C@@H]1C(=O)N2C(C(=O)O)=C(COC(N)=O)CS[C@H]12)c1ccco1 [Cefuroxime] | 32 |
| C[C@H]1COc2c(N3CCN(C)CC3)c(F)cc3c(=O)c(C(=O)O)cn1c23 [Levofloxacin, levofloxacin] | 0.5 |
| C[C@@H]1O[C@@H]1P(=O)(O)O [Fosfomycin] | 64 |
| CO[C@@]1(NC(=O)Cc2cccs2)C(=O)N2C(C(=O)O)=C(COC(N)=O)CS[C@@H]21 [Cefoxitin] | 64 |
| CC(C)(O/N=C(\C(=O)N[C@@H]1C(=O)N2C(C(=O)[O-])=C(C[n+]3ccccc3)CS[C@H]12)c1csc(N)n1)C(=O)O [Ceftazidime] | 2 |
| C[C@H]1c2cccc(O)c2C(=O)C2=C(O)[C@]3(O)C(=O)C(C(N)=O)=C(O)[C@@H](N(C)C)[C@@H]3[C@@H](O)[C@@H]21 [Doxycycline, doxycycline] | 64 |

Q: For K. pneumoniae NVT1001 ΔramRΔompK35/36 mutant and its revertants, provide MIC of C[C@H]1[C@H](NC(=O)/C(=N\OC(C)(C)C(=O)O)c2csc(N)n2)C(=O)N1S(=O)(=O)O [Aztreonam] please.
Ans: 0.5

Q: Would you mind doing CN(C)c1cc(NC(=O)CNC(C)(C)C)c(O)c2c1C[C@H]1C[C@H]3[C@H](N(C)C)C(O)=C(C(N)=O)C(=O)[C@@]3(O)C(O)=C1C2=O [Tigecycline, tigecycline] as well?
Ans: 8

Q: Please answer likewise for C[C@@H](O)[C@H]1C(=O)N2C(C(=O)O)=C(S[C@@H]3CN[C@H](C(=O)Nc4cccc(C(=O)O)c4)C3)[C@H](C)[C@H]12 [Ertapenem]
Ans: 0.125

Q: Same question for O=C(N[C@H](CO)[C@H](O)c1ccc([N+](=O)[O-])cc1)C(Cl)Cl [Chloramphenicol] please.
Ans: 64

Q: Try this molecule next: COc1cc(Cc2cnc(N)nc2N)cc(OC)c1OC [Trimethoprim]
Ans: 8

Q: Consider next the molecule CC(=O)OCC1=C(C(=O)O)N2C(=O)[C@@H](NC(=O)Cc3cccs3)[C@H]2SC1 [Cephalothin] in the same way.
Ans: 64
